Tested on: NCI-H1876 complex spheroid growth, % test/control
experiment: Anticancer human tumor NCI-H1876 cell line growth inhibition [Asc];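 further: compound exposure lasted 7 days starting three days after seeding; 100% = DMSO vehicle control wells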
measurement.parameters: second compound 0.3 µM; first compound 0.1 µM; active compounds read low
The entries below are paired with their reported viability, T/C.
The figure you give is taken to be in %; do not add the unit.

NC1CCC(NC2CC2c2ccccc2)CC1 (stereo not drawn) + CCN1C(C(=O)NC23CCC(C(=O)O)(CC2)CC3)C(c2cccc(Cl)c2F)C2(C(=O)Nc3cc(Cl)ccc32)C12CCCCC2 = 108
C=CC(=O)N1CCN(c2nc(=O)n(-c3c(C)ccnc3C(C)C)c3nc(-c4c(O)cccc4F)c(F)cc23)C(C)C1 (stereo not drawn) + CCN1C(C(=O)NC23CCC(C(=O)O)(CC2)CC3)C(c2cccc(Cl)c2F)C2(C(=O)Nc3cc(Cl)ccc32)C12CCCCC2 = 106
CNC(C)C(=O)NC1CN(S(=O)(=O)c2cccc(S(=O)(=O)N3CCC4CCC(C(=O)NC(c5ccccc5)c5ccccc5)N4C(=O)C(NC(=O)C(C)NC)C3)c2)CCC2CCC(C(=O)NC(c3ccccc3)c3ccccc3)N2C1=O (stereo not drawn) + CCN1C(C(=O)NC23CCC(C(=O)O)(CC2)CC3)C(c2cccc(Cl)c2F)C2(C(=O)Nc3cc(Cl)ccc32)C12CCCCC2 = 108
CCN1CCN(Cc2ccc(Nc3ncc(F)c(-c4cc(F)c5nc(C)n(C(C)C)c5c4)n3)nc2)CC1 + CCN1C(C(=O)NC23CCC(C(=O)O)(CC2)CC3)C(c2cccc(Cl)c2F)C2(C(=O)Nc3cc(Cl)ccc32)C12CCCCC2 = 113

Entry O=C(c1ccc(F)c(F)c1Nc1ccc(I)cc1F)N1CC(O)([C@@H]2CCCCN2)C1 + CCN1C(C(=O)NC23CCC(C(=O)O)(CC2)CC3)C(c2cccc(Cl)c2F)C2(C(=O)Nc3cc(Cl)ccc32)C12CCCCC2 ; viability, T/C = 101

viability, T/C measured on Cn1ncnc1[C@H]1c2n[nH]c(=O)c3cc(F)cc(c23)N[C@@H]1c1ccc(F)cc1 + CCN1C(C(=O)NC23CCC(C(=O)O)(CC2)CC3)C(c2cccc(Cl)c2F)C2(C(=O)Nc3cc(Cl)ccc32)C12CCCCC2 = 98.3

Entry C=C(F)C(=O)N1CCN(c2nc(OCC3CCCN3C)nc3c2CCN(c2cccc4cccc(Cl)c24)C3)CC1CC#N (stereo not drawn) + CCN1C(C(=O)NC23CCC(C(=O)O)(CC2)CC3)C(c2cccc(Cl)c2F)C2(C(=O)Nc3cc(Cl)ccc32)C12CCCCC2 — recorded viability, T/C = 92.1

Quick note, viability, T/C for O=C(c1cc(Cc2n[nH]c(=O)c3ccccc23)ccc1F)N1CCN(C(=O)C2CC2)CC1 + CCN1C(C(=O)NC23CCC(C(=O)O)(CC2)CC3)C(c2cccc(Cl)c2F)C2(C(=O)Nc3cc(Cl)ccc32)C12CCCCC2 landed at 116
